Values were extracted from PubChem BioAssay (NCATS).

ASSAY_TEXT: Cell Viability - LYMP2-008 (AID 980); note: nearly all actives have a fitted effect of over 60% in size
CONDITION_DETAILS: LYMP2-008 lymphoblastoid cell viability, qHTS; series mostly up to 92.2 µM
Inconclusive results are not listed. Calls of active or inactive are those of the source. Calls come from the whole dose curve; as a rule, active = well fitted cell-killing curve with a large enough effect; inconclusive = small, poorly fitted or top-dose-only effect; inactive = flat fitted curve, though single readings scatter.
Classes used: true = active, false = inactive

| COMPOUND | ASSIGNED_CLASS |
| --- | --- |
| O=C(O)C1C(C(=O)O)C2(Cl)C(Cl)=C(Cl)C1(Cl)C2(Cl)Cl (stereo not drawn) | false |
| N#CSCSC#N | true |
| ClC1=C(Cl)C(Cl)(Cl)C(Cl)=C1Cl | true |
| Nc1ccccc1C(=O)OCCc1ccccc1 | false |
| Oc1c(Br)c(Br)c(Br)c(Br)c1Br | false |
| C(=NC1CCCCC1)=NC1CCCCC1 | true |
| Clc1ccc(C(c2ccc(Cl)cc2)C(Cl)Cl)cc1 | false |
| [CH3][Hg][Cl] | true |
| O=C(CCl)c1ccccc1 | true |
| C#CCO | false |
| CC(=O)[O-].CC(=O)[O-].O.O.[Cd+2] | true |
| O=[N+]([O-])C(Br)Br | true |
| CN(C)c1ccc(N=O)cc1 | true |

* * *

MEASURED_TARGET: Androgen receptor (Homo sapiens) (UniProt P10275)
Sequence (P10275 whole entry, looked up): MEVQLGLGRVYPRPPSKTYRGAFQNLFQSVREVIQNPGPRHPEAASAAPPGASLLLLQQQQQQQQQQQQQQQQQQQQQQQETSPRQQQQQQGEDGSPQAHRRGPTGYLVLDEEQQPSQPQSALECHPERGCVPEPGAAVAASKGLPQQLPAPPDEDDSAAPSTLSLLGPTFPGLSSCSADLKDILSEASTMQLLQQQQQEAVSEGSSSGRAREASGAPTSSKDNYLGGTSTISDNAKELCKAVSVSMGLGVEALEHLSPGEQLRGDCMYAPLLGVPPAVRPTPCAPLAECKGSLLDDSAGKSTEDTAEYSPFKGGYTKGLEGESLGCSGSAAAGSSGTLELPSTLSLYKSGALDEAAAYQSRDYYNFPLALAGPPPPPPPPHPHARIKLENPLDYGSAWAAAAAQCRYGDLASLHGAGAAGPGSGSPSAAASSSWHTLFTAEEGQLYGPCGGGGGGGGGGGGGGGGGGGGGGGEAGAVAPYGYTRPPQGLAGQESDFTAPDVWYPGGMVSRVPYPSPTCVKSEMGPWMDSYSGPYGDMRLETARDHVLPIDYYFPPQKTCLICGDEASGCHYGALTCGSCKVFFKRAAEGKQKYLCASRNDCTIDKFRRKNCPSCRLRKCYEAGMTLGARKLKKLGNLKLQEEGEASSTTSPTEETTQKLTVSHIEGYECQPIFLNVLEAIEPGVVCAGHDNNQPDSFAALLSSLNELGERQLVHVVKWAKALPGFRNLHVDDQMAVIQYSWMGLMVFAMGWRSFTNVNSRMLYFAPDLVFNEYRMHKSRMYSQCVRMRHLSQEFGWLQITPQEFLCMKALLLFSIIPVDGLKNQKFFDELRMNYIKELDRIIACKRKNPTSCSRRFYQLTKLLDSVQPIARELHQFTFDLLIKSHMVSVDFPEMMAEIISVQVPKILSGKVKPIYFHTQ
ASSAY_TEXT: qHTS assay for small molecule antagonists of androgen receptor signaling (AID 588516)
CONDITION_DETAILS: AR-UAS-bla HEK293, beta-lactamase ratio, antagonist mode, 16 h; series mostly up to 76.8 µM
Inconclusive results are not listed. Active and inactive are the calls of the source. The call rests on the fitted dose curve; in most records, active means well fitted curve in the direction sought with a large enough effect in the signal ratio, with a control signal flat (not every such curve was filed as active); inconclusive means small, poorly fitted or top-dose-only effect, or effect the other way, or a change in a side signal; inactive means no such curve, though single readings can be large or run the other way; the % refers to the signal ratio.

| STRUCTURE_AS_SMILES | outcome |
| --- | --- |
| CCNc1nc(NC(C)C)nc(SC)n1 | inactive |
| COc1ccc(-c2ccccc2)cc1NNC(=O)OC(C)C | inactive |
| CCOP(=S)(OCC)SCC(=O)NC(C)C | inactive |
| C/C=C(\C)C(=O)O[C@H]1C[C@@H](OC(C)=O)[C@@]2(C(=O)OC)CO[C@H]3[C@@H](O)[C@@](C)([C@]45O[C@@]4(C)[C@H]4C[C@@H]5O[C@@H]5OC=C[C@@]54O)[C@H]4[C@]1(CO[C@]4(O)C(=O)OC)[C@@H]32 | inactive |
| FC(F)(F)c1ccc(OCCCOc2c(Cl)cc(OCC=C(Cl)Cl)cc2Cl)nc1 | inactive |
| Cc1ccccc1CO[C@@H]1C[C@@]2(C(C)C)CC[C@]1(C)O2 | inactive |
| C[N+]1(C)CCCCC1 | inactive |

* * *

ASSAY_TEXT: qHTS assay for small molecule agonists of the antioxidant response element (ARE) signaling pathway measured by Nrf2-dependant transcriptional activity (AID 720636);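 for activation: HepG2 cells with an ARE-driven luciferase reporter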
CONDITION_DETAILS: ARE-luc HepG2, Nrf2 luciferase reporter, 16 h; series mostly up to 92.4 µM
Inconclusive results are not listed. Activity calls are given as the source filed them. Calls follow the shape of the dose curve; as a rule, active = well fitted activation curve with a large enough effect in the repeat runs; inconclusive = weak or mixed curves; inactive = flat fitted curve, though single readings scatter.
Classes used: active, inactive

| COMPOUND | ASSIGNED_CLASS |
| --- | --- |
| CCNS(=O)(=O)C(F)(F)C(F)(F)C(F)(F)C(F)(F)C(F)(F)C(F)(F)C(F)(F)C(F)(F)F | inactive |
| CCCCC(O)(Cn1cncn1)c1ccc(Cl)cc1Cl (stereo unspecified) | inactive |
| COC(=O)N(OC)c1ccccc1COc1ccn(-c2ccc(Cl)cc2)n1 | inactive |
| CCCC1COC(Cn2cncn2)(c2ccc(Cl)cc2Cl)O1 (stereo unspecified) | inactive |
| CCC(C)(C)c1ccc(O)c(C(C)(C)CC)c1 | inactive |
| O=c1[nH]c2ccccc2c(=O)o1 | inactive |
| CC(C)C(C(=O)OC(C#N)c1cccc(Oc2ccccc2)c1)c1ccc(Cl)cc1 (stereo unspecified) | inactive |
| CCOP(=O)(SC(C)CC)N1CCSC1=O (stereo unspecified) | inactive |
| NS(=O)(=O)C(F)(F)C(F)(F)C(F)(F)C(F)(F)C(F)(F)C(F)(F)C(F)(F)C(F)(F)F | inactive |
| [Cl][Sn]([c]1ccccc1)([c]1ccccc1)[c]1ccccc1 | active |
| O=P(OCC(Br)CBr)(OCC(Br)CBr)OCC(Br)CBr (stereo unspecified) | inactive |
